biological target: FGFR1 (UniProt P11362); assay: phosphorylation enrichment, bacterial display (enrichment ratio); higher = better substrate or ligand; peptides without Tyr show the background;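 also: 11-residue human phosphosite peptides and single-mutation variants displayed on the E. coli surface, counted by deep sequencing, each peptide's frequency after selection divided by its frequency in the unselected input library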;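 also: frequency after pTyr selection over input frequency; kinase dosed for 20-30% of maximal phosphorylation in three min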
Sequence (P11362 whole entry, looked up): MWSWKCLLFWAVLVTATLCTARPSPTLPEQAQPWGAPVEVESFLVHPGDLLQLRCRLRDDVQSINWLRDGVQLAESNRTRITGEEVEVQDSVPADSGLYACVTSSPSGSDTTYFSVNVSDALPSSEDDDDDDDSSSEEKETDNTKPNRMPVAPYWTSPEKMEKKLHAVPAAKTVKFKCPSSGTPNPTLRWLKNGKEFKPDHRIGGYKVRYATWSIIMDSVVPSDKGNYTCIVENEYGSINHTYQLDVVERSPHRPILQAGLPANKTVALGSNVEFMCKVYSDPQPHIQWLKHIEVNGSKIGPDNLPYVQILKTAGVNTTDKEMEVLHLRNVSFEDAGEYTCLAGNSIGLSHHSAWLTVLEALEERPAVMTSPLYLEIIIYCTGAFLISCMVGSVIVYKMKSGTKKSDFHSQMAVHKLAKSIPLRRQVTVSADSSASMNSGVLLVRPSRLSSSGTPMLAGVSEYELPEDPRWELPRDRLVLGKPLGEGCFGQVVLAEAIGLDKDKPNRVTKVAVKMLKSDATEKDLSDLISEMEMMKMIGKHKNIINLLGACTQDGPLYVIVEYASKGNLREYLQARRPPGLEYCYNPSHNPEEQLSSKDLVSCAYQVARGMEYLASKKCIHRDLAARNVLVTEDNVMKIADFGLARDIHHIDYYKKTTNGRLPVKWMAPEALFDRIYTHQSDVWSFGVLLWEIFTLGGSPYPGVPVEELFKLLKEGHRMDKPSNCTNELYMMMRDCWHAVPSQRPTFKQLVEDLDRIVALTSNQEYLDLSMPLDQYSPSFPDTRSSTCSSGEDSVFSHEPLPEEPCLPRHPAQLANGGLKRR
Listed sequences paired with reported phosphorylation enrichment
Enter a number only.

See these solved cases before continuing.
>>> df
                       sequence_code            study_system                readout_kind  data_value
0         RLFARYFQGDL [PDK3_Y337_YF]  FGFR1 (UniProt P11362)  phosphorylation enrichment       0.572
1            QRRLVYYEGGA [RYR1_Y245]  FGFR1 (UniProt P11362)  phosphorylation enrichment       0.497
2          QGCSIYKDYYR [PLA2G2D_Y82]  FGFR1 (UniProt P11362)  phosphorylation enrichment        1.27
3    DNLSNYVFQGQ [GRIN2A_Y978_N976S]  FGFR1 (UniProt P11362)  phosphorylation enrichment       0.571
4     RRAVKYLQMVG [AVPR2_Y117_C112R]  FGFR1 (UniProt P11362)  phosphorylation enrichment        0.52
5             AAILGYCRGEA [XPC_Y669]  FGFR1 (UniProt P11362)  phosphorylation enrichment       0.541
6  DVFVSYDCGKS [SORL1_Y139_Y141C_YF]  FGFR1 (UniProt P11362)  phosphorylation enrichment       0.485
7    IVAREYYSKAD [CAMK2B_Y107_E110K]  FGFR1 (UniProt P11362)  phosphorylation enrichment        0.43
8   LALTVYADCLA [ABCA4_Y2063_G2059A]  FGFR1 (UniProt P11362)  phosphorylation enrichment       0.665
9      ERIEFYELNKK [PMM2_Y145_D148N]  FGFR1 (UniProt P11362)  phosphorylation enrichment       0.489

Record summary for LCRYGYANTSE [SI_Y1233] : reported phosphorylation enrichment = 0.656

Record summary for GCCSWYRGWAP [TIMP3_Y195_Y191C] : reported phosphorylation enrichment = 1.38

Record summary for RYVSRYIYNRE [HLA-DQB1_Y62_T60S] : reported phosphorylation enrichment = 0.658

Record summary for PLDGEYFTLQV [TP53_Y327_I332V] : reported phosphorylation enrichment = 12.8

----------
molecular target: Jak2 (UniProt O60674); experiment: phosphorylation enrichment, bacterial display (enrichment ratio); higher = better substrate or ligand; peptides without Tyr show the background
Sequence (O60674 whole entry, looked up): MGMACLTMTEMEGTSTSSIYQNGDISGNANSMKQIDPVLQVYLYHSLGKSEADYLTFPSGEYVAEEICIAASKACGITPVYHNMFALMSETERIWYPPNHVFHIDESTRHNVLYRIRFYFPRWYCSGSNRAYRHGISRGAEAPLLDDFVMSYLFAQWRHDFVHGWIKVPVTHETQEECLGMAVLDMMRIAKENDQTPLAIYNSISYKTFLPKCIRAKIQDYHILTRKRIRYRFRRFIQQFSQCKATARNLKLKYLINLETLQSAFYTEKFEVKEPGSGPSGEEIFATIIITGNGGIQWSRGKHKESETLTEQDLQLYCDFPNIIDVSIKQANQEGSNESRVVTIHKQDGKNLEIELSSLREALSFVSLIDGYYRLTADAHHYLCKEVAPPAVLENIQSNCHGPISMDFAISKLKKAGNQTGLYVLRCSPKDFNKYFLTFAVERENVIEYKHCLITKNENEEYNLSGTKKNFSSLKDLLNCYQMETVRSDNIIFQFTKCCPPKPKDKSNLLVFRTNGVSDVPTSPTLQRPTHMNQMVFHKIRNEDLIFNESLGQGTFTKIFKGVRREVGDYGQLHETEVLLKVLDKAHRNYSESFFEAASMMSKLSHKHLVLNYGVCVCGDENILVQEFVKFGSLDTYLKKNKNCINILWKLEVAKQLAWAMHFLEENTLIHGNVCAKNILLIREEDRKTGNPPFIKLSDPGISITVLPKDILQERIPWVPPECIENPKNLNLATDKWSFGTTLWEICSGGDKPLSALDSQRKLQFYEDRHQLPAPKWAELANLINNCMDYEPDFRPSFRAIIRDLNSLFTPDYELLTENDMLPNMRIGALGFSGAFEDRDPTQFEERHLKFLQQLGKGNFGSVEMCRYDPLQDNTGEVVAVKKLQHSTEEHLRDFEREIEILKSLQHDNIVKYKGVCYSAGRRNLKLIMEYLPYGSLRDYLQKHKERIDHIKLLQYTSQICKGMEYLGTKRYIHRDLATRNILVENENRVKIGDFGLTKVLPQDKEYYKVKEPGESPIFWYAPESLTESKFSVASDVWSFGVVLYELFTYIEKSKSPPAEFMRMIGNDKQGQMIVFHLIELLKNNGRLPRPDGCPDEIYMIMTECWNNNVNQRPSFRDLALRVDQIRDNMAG
Short version: phosphorylation enrichment at least 0.9 is criterion met, less is criterion not met.

Examples with answers:
In [3]: df
Out[3]:
                      sequence_code     discrete_label
0   AIMSFYATLID [RYR1_Y2426_A2428T]      criterion met
1             DVSKEYGHLLP [HRC_Y99]  criterion not met
2  SPGGDYAAMGA [ERBB3_Y1276_G1271S]  criterion not met
3       SIKDKYVTALF [KCNH2_Y611_YF]  criterion not met
4      NIEPIYLNMLL [ATR_Y317_V316I]      criterion met
5          GYKVRYATWSI [FGFR1_Y210]      criterion met

Pending sequence:
Evaluate SFNNKYGMVAQ [APOB_Y276_K273N_YF] : phosphorylation enrichment at minimum 0.9?
criterion not met

From: the supplement of paper PMC10065799
